assay: Quantitative High-Throughput Screen for Regulators of Epigenetic Control; conditions: murine LDR cells, GFP reporter derepression, 30 h; series mostly up to 53.9 µM; further: nearly all actives have a fitted effect of over 60% in size
Screen size: about 280,000 compounds; about 540 (0.19%) were called active. Not shown: some 2% with an inconclusive outcome. The call rests on the fitted dose curve; in most records, active means well fitted activation curve with a large enough effect; inconclusive means small, poorly fitted or top-dose-only effect; inactive means flat fitted curve, though single readings scatter. For the sample, actives were picked, then their nearest neighbours and some compounds at random.
Labels: active, inactive

{"Mol Smiles": "CC(C)(O)c1[se]c2ccccc2c1I", "Label": "inactive"}
{"Mol Smiles": "CN[C@@H]1C[C@H]2O[C@@](C)([C@@H]1OC)n1c3ccccc3c3c4c(c5c6ccccc6n2c5c31)C(=O)NC4", "Label": "inactive"}
{"Mol Smiles": "CC1=CC(=Cc2sc3ccccc3[n+]2C)C=C(C)O1", "Label": "active"}
{"Mol Smiles": "C[C@]12CC[C@H](O)C[C@@H]1CC[C@H]1[C@H]2CC[C@]2(C)C(=O)CC[C@@H]12", "Label": "inactive"}
